Measured Mean diff, DMSO vs. treatment (log2-transformed values), listed per entry for reference.
# Test system: IRE1/XBP1s
# Run Description: XBP1 endoplasmic reticulum stress reporter assay (CMV-XBP-GLuc)
# Type: cell-based, human
# Condition Details: DMSO vs. 5 µM; Dunnett's multiple comparisons test; Figure S5
Peptide text beside a SMILES is read from it. * marks the point of attachment. Cbz = O=C(OCc1ccccc1)*

Record excerpt, results attached:
COc1ccc(/C=C2\CC(NC(=O)C3CCCC3)C/C(=C\c3ccc(OC)c(OC)c3)C2=O)cc1OC (stereo not shown): -0.9716
CC(C)C[C@@H](C=O)NC(=O)[C@H](CC(C)C)NC(=O)[C@H](CC(C)C)NC(=O)OCc1ccccc1 [MG132] (Cbz-Leu-Leu-Leu-aldehyde): -2.725
COc1ccc(/C=C2\CC(NC(=O)c3ccccn3)C/C(=C\c3ccc(OC)c(OC)c3)C2=O)cc1OC (stereo not shown): -1.607

Proceed to the following item.
Value of Mean diff, DMSO vs. treatment (log2-transformed values) reported for the molecule COc1ccc(/C=C2\CC(N)C/C(=C\c3ccc(OC)c(OC)c3)C2=O)cc1OC (stereo not shown) is -0.216

====

# Test system: HEK293 cells
# Run Description: alamarBlue cytotoxicity assessment in HEK293 cells
# Format: cell-based, human
# Condition Details: HEK293, alamarBlue, 16 h; concentration not given
Test Readout: Tox [% of ctrl.]

COc1ccc(/C=C2\CC(N)C/C(=C\c3ccc(OC)c(OC)c3)C2=O)cc1OC (stereo not shown) [RUN-81]: 84% of ctrl.
COc1ccc(/C=C2\CC(NC(=O)CCN)C/C(=C\c3ccc(OC)c(OC)c3)C2=O)cc1OC (stereo not shown) [RUN-104]: 105% of ctrl.
COc1ccc(/C=C2\CC(NC(=O)Cn3ccnc3)C/C(=C\c3ccc(OC)c(OC)c3)C2=O)cc1OC (stereo not shown) [RUN-99]: 103% of ctrl.
COc1cccc(NC(=O)N2C/C(=C\c3ccc(OC)c(OC)c3)C(=O)/C(=C/c3ccc(OC)c(OC)c3)C2)c1 [RUN-76]: 88% of ctrl.
COCCOCCOCC(=O)N1C/C(=C\c2ccc(OC)c(OC)c2)C(=O)/C(=C/c2ccc(OC)c(OC)c2)C1 [RUN-82]: 85% of ctrl.

Reported Tox [% of ctrl.] for COc1ccc(/C=C2\CN(C(=O)[C@@H]3CCC(=O)N3)C/C(=C\c3ccc(OC)c(OC)c3)C2=O)cc1OC [RUN-110] was 85% of ctrl.

Given item COc1ccc(/C=C2\CN(C(=S)Nc3cccnc3)C/C(=C\c3ccc(OC)c(OC)c3)C2=O)cc1OC [RUN-73] , the value recorded as its Tox [% of ctrl.] is 84% of ctrl.

====

# Test system: HEK293 cells
# Run Description: alamarBlue cytotoxicity assessment in HEK293 cells
# Assay type: cell-based, human
# Condition Details: human, 16 h
Test Readout: Tox [% of ctrl.]

Below, 3 compounds whose answers are already recorded.
COc1ccc(/C=C2/C(=O)/C(=C/c3ccc(OC)c(OC)c3)C3CCC2N3)cc1OC [RUN-78]: 89% of ctrl.
COc1ccc(/C=C2/C(=O)/C(=C/c3ccc(OC)c(OC)c3)C3CCC2N3CCN2CCOCC2)cc1OC [RUN-79]: 104% of ctrl.
COc1ccc(/C=C2\CN(C(=O)C34CCN(CC3)CC4)C/C(=C\c3ccc(OC)c(OC)c3)C2=O)cc1OC [RUN-83]: 87% of ctrl.

Record summary for COc1ccc(/C=C2\CC(NC(=O)C34CCN(CC3)CC4)C/C(=C\c3ccc(OC)c(OC)c3)C2=O)cc1OC (centres unmarked) [RUN-87] : reported Tox [% of ctrl.] = 101% of ctrl.

Form: compound = COc1ccc(/C=C2/C(=O)/C(=C/c3ccc(OC)c(OC)c3)C3CCC2N3Cc2ccc(C#N)cc2)cc1OC [RUN-80] ; Tox [% of ctrl.] = 98% of ctrl.

====

# Tested on: HEK293 cells
# Run Description: alamarBlue cytotoxicity assessment in HEK293 cells
# Type: cell-based, human
# Condition Details: HEK293, alamarBlue, 16 h; concentration not given
Test Readout: Tox [% of ctrl.]

COc1ccc(/C=C2\CC(NC(=O)CN3CCOCC3)C/C(=C\c3ccc(OC)c(OC)c3)C2=O)cc1OC.O=C(O)C(F)(F)F (stereo not shown): 102% of ctrl.
CCOC(=O)CNC(=O)N1C/C(=C\c2ccc(OC)c(OC)c2)C(=O)/C(=C/c2ccc(OC)c(OC)c2)C1: 81% of ctrl.
COc1ccc(/C=C2\CN(C(=O)C3CCCC3)C/C(=C\c3ccc(OC)c(OC)c3)C2=O)cc1OC: 80% of ctrl.
COc1ccc(/C=C2\CC(NC(=O)CN(C)C)C/C(=C\c3ccc(OC)c(OC)c3)C2=O)cc1OC.O=C(O)C(F)(F)F (stereo not shown): 96% of ctrl.
COc1ccc(/C=C2\CC(NC(=O)CCCN)C/C(=C\c3ccc(OC)c(OC)c3)C2=O)cc1OC.O=C(O)C(F)(F)F (stereo not shown): 100% of ctrl.
COc1ccc(/C=C2\CN(C(=O)CN3CCN(C)CC3)C/C(=C\c3ccc(OC)c(OC)c3)C2=O)cc1OC: 78% of ctrl.
COc1ccc(/C=C2\CC(NC(=O)C3CCC(=O)N3)C/C(=C\c3ccc(OC)c(OC)c3)C2=O)cc1OC (stereo not shown): 99% of ctrl.
COc1ccc(/C=C2\CN(C(=O)CCN)C/C(=C\c3ccc(OC)c(OC)c3)C2=O)cc1OC: 83% of ctrl.

For CCN(CC)CC(=O)N1C/C(=C\c2ccc(OC)c(OC)c2)C(=O)/C(=C/c2ccc(OC)c(OC)c2)C1.O=C(O)C(F)(F)F the compound record lists Tox [% of ctrl.] as 78% of ctrl.

Input COc1ccc(/C=C2\CN(C(=O)CCCN(C)C)C/C(=C\c3ccc(OC)c(OC)c3)C2=O)cc1OC.O=C(O)C(F)(F)F . Output Tox [% of ctrl.]: 75% of ctrl.

Reported Tox [% of ctrl.] of COc1ccc(/C=C2\CN(C(=O)CCCN)C/C(=C\c3ccc(OC)c(OC)c3)C2=O)cc1OC : 85% of ctrl.

The reported value for COCCOCCOCC(=O)NC1C/C(=C\c2ccc(OC)c(OC)c2)C(=O)/C(=C/c2ccc(OC)c(OC)c2)C1 (stereo not shown) in terms of Tox [% of ctrl.] is 86% of ctrl.

For reference, reported Tox [% of ctrl.] for COc1ccc(/C=C2\CC(NC(=O)c3ccccn3)C/C(=C\c3ccc(OC)c(OC)c3)C2=O)cc1OC (stereo not shown) stands at 78% of ctrl.

Source: paper PMC12606464
